- method-notes: FRG1 promoter luciferase signal modulators, primary screen, FRG1 inhibition for FSHD, cell-based, C2C12 myotubes, firefly/Renilla luciferase, luminescence (AID 1084)
- test-settings: higher = more signal, called active from +8 up or from −8 down
Assignment: determine reported z-score for the given compounds.
One number for each entry.

Please review the entries below; each comes with its answer.
compound	result-value
COc1ccc(COC(=O)NN=C2C[C@@H](O)[C@@H](O)[C@@H]3[C@@H]4C(=O)N(C[C@@H]5CCCO5)C(=O)[C@@H]4CC[C@H]23)cc1	-0.249
COC(=O)C(C(=O)OC)C1CCCC(=O)C1 (stereo unspecified)	0.335
CO[C@@H]1[C@H](O)CO[C@H]1C=Cc1ccccc1	-0.253
CC(C)(C)N1C(=O)[C@H]2[C@H]3[C@H](O)[C@H](O)CC(=NNC(=O)OCc4ccccc4)[C@H]3CC[C@H]2C1=O	-0.0034
C[C@H]1CC[C@H]2C(=O)O[C@H](CO)CN2[C@@H]1c1ccc(Br)cc1	1.11
CCN1C(=O)[C@H]2[C@H]3[C@H](O)[C@H](O)CC(=NO[C@@H](C)c4cc(-c5c(C)cc(C)cc5C)no4)[C@@H]3CC[C@H]2C1=O	0.998
CCOC(=O)CCN1C(=O)[C@H]2[C@H]3[C@H](O)[C@H](O)CC(=NOCC=C(C)CCC=C(C)C)[C@H]3CC[C@H]2C1=O	-0.815
COC(OC)[C@@H](C)[C@H](OC)[C@@H](C)[C@H](OC)c1ccccc1	-0.406

Field: z-score. Fill in for each record below.
1. CCC1=NOC(CCC2CC(OC(=O)NCc3cccc4c3OCO4)CC3(CCCC(COC(=O)NCCc4ccc(Cl)cc4)O3)O2)C1 (stereo unspecified)
2. CCN1C(=O)[C@H]2[C@H]3[C@H](O)[C@H](O)CC(=NOCC(C)C)[C@H]3CC[C@H]2C1=O

Response:
1. 1.24
2. 0.268
